Assay: self-splicing fitness, log relative to wild type (ln ratio); higher = more splicing; Tetrahymena group I intron in knt gene, E. coli kanamycin selection, DiMSum; sequences stand for … in CUCUCU…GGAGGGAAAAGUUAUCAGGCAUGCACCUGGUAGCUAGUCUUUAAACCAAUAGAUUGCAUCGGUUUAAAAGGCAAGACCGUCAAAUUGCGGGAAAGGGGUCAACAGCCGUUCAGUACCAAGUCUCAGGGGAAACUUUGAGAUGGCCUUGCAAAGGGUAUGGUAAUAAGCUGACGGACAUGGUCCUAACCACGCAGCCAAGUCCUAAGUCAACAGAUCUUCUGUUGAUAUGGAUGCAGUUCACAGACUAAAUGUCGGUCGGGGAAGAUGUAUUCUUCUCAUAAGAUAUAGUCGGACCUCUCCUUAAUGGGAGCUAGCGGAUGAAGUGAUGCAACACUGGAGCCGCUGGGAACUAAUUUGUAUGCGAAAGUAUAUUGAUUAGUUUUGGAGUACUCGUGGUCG;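 further: selection with 25 µg/mL kanamycin versus none on LB agar overnight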
Details: 37 °C
Documented self-splicing fitness (ln) across a set of sequences
measured-parameter: self-splicing fitness (ln)

         record_sequence  value_reported
 0  CUAAAGCAAUAUUACGCCGG          -0.177
 1  ACGGAGCAAUAUUACGCGCA           -1.64
 2  CAUGAGCAAUAUUACGCCUU           -1.86
 3  GAGAAGCAAUAUUACGAUAA           -0.42
 4  GUGCAGCAAUAUUACGGGGU           -2.19
 5  GGCCAGCAAUAUUACGCUUG           -2.58
 6  CGUGAGCAAUAUUACGCAAA           -1.84
 7  CGCGAGCAAUAUUACGUGGC           -2.16
 8  AAGAAGCAAUAUUACGGCUU           -3.23
 9  AUUCAGCAAUAUUACGCCGG          -0.848
10  GCUAAGCAAUAUUACGUCAU           0.727
11  AAUCAGCAAUAUUACGCUCC          -0.129
12  UAUAAGCAAUAUUACGGAUG          -0.286
13  UUCAAGCAAUAUUACGCCUG           -1.64
14  UGAUAGCAAUAUUACGUGCC           -1.26
15  AAAGAGCAAUAUUACGUACU          -0.952
16  GUAUAGCAAUAUUACGCGGG           -2.23
17  CCCAAGCAAUAUUACGAAUG            -2.8
18  UUUCAGCAAUAUUACGCCAA          -0.379
19  GAAGAGCAAUAUUACGCCCA          -0.321
20  GCUUAGCAAUAUUACGAACU          0.0658
21  AACGAGCAAUAUUACGCGAC           -2.03
22  CCUGAGCAAUAUUACGGUCU           -3.78
23  GACAAGCAAUAUUACGAAAG           -3.18
24  UAUCAGCAAUAUUACGGCGU          -0.578
25  GGCUAGCAAUAUUACGACAG           -1.85
26  UUCCAGCAAUAUUACGCUCC          -0.988
27  CCCGAGCAAUAUUACGGACA           -1.19
28  AUCUAGCAAUAUUACGCAAC           -2.06
29  AAAUAGCAAUAUUACGUGUG           -1.55
30  AUUCAGCAAUAUUACGUUUU          -0.724
31  ACAGAGCAAUAUUACGGAGG           -1.39
32  UGGAAGCAAUAUUACGUAUU           -3.09
33  AGUCAGCAAUAUUACGGUAC           -1.88
